Target: hERG potassium channel (Homo sapiens)
Construct: expressed in transfected cells; host or cells: HEK293
Sequence (Q12809 whole entry): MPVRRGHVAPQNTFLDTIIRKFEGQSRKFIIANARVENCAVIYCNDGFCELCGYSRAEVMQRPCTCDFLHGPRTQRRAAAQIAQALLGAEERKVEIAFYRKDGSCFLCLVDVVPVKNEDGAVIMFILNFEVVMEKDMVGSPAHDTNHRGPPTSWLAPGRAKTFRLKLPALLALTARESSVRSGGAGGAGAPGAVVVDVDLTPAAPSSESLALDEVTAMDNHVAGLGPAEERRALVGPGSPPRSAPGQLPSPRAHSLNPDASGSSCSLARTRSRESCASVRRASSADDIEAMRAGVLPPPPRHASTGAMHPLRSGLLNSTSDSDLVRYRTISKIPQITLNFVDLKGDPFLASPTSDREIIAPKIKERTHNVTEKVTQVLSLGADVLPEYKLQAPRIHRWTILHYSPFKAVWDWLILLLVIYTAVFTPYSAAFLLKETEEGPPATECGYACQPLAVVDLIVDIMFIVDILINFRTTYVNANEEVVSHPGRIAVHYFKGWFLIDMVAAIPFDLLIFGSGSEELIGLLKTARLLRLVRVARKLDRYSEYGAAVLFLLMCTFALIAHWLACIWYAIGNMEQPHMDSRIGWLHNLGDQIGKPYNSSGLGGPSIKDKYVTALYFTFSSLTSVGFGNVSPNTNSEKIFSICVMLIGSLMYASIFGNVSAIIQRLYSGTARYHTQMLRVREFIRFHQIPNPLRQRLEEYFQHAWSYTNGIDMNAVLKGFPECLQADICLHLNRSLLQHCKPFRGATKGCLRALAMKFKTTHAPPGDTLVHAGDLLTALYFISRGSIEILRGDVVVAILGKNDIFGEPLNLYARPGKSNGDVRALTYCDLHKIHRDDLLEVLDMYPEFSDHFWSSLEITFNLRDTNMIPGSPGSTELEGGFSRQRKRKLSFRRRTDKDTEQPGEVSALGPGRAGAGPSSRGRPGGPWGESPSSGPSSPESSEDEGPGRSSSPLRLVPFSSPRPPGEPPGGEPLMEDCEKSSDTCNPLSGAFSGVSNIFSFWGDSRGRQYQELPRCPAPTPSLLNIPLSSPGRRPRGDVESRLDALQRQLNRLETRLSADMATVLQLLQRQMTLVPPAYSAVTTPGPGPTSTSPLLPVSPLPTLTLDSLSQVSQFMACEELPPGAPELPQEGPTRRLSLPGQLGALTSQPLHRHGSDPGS
Assay: hERG-transfected HEK293 cells using a Patch Express apparatus
Format: cell-based
Conditions: 100 nM; bracketed value in cell = % block by vehicle
readout label: % block of the hERG channel

Field: example entries. Status: answers known.
- COc1cc(N)c(Cl)cc1C(=O)NC1CCN(CCCOc2ccc(F)cc2)CC1(F)F (single isomer, unassigned) [Compound (−)-17]: 3 (7) %
- COc1cc(N)c(Cl)cc1C(=O)NC1CCN(CCCOc2ccc(F)cc2)CC1(F)F (racemic) [(±)-17]: 9 (7) %
- COc1cc(N)c(Cl)cc1C(=O)N[C@@H]1CCN(CCCOc2ccc(F)cc2)C[C@H]1F (racemic) [(±)-7]: 35 (7) %
- COc1cc(N)c(Cl)cc1C(=O)N[C@H]1CCN(CCCOc2ccc(F)cc2)C[C@H]1F (racemic) [(±)-12]: 40 (7) %

Here is another molecule to look at.
Reported % block of the hERG channel for hERG potassium channel (Homo sapiens), given COc1cc(N)c(Cl)cc1C(=O)NC1CCN(CCCOc2ccc(F)cc2)CC1(F)F (single isomer, unassigned; (+)) [(+)-17] ?
14 (7) %
